# System: human colorectal cancer strain GP2d
# Format: cell-based
The entries below come with measured IC50 values attached.
All answers are understood in nM, so give the number only.

{"columns": ["Molecule", "IC50 / nM"],
 "data": [
  ["CCO[C@@H]1C[C@H]2C(=O)OC3(CCC3)C(=O)N(C)[C@@H](C3CCCC3)C(=O)N(C)[C@H](C(=O)N(C)C)CC(=O)N(C)[C@@H]([C@@H](C)OC)C(=O)N[C@@H]([C@@H](C)CC)C(=O)N(C)CC(=O)N(C)[C@H]3C/C=C\\CCN(C3=O)[C@@H](Cc3ccc(C)cc3)C(=O)N(C)CC(=O)N[C@@H](CCc3ccc(C(F)(F)F)c(OC)c3)C(=O)N2C1 [PP3394]", 2.5],
  ["CCC[C@H]1C(=O)N[C@@H]([C@@H](C)CC)C(=O)N(C)CC(=O)N(C)[C@H]2C/C=C\\CCN(C2=O)[C@@H](Cc2ccc(C)cc2)C(=O)N(C)CC(=O)N[C@@H](CCc2ccc(C(F)(F)F)c(OC)c2)C(=O)N2C[C@H](OCC)C[C@H]2C(=O)OC2(CCC2)C(=O)N(C)[C@@H](C2CCCC2)C(=O)N(C)[C@H](C(=O)N(C)C)CC(=O)N1C [PP3388]", 4.6]
]}

# input Any idea what its IC50 is? The molecule is CCC[C@H]1C(=O)N[C@@H]([C@@H](C)CC)C(=O)N(C)CC(=O)N(C)[C@H]2C/C=C\CCN(C2=O)[C@@H](Cc2ccc(C)cc2)C(=O)N(C)CC(=O)N[C@@H](CCc2cc(F)c(C(F)(F)F)c(F)c2)C(=O)N2CC3(CC3)C[C@H]2C(=O)N(C)C2(CCC2)C(=O)N(C)[C@@H](C2CCCC2)C(=O)N(C)[C@H](C(=O)N(C)C)CC(=O)N1C [PP3327]
# output 0.7

====

The entries below come with measured pIC50 values attached.
# Tested on: human lung cancer strain NCI-H441
# Type: cell-based
Where a SMILES comes first, the peptide text is derived from it. Bridges are numbered along the chain shown (N, C = ends). [ ]: non-standard residue; d: D form. The star is where a group is joined. hPhe(3,5-F2-4-CF3) = N[C@@H](CCc1cc(F)c(C(F)(F)F)c(F)c1)C(=O)O; hPhe(3-Cl-4-CF3) = N[C@@H](CCc1ccc(C(F)(F)F)c(Cl)c1)C(=O)O; NPrPhe(4-CF3) = CCCN[C@@H](Cc1ccc(C(F)(F)F)cc1)C(=O)O; NMePhe(4-Me) = CN[C@@H](Cc1ccc(C)cc1)C(=O)O; NMeGly(cPent) = CN[C@H](C(=O)O)C1CCCC1; NMeD = CN[C@@H](CC(=O)O)C(=O)O; Ac4c(3-oxa) = NC1(C(=O)O)COC1; NMeL = CN[C@@H](CC(C)C)C(=O)O; Morpholide = C1CN(*)CCO1; Ac5c = NC1(C(=O)O)CCCC1; Ac4c = NC1(C(=O)O)CCC1; NEtG = CCNCC(=O)O; Sar = CNCC(=O)O
Answer as the number alone; pIC50 is minus log10 of concentration in mol/L.

{"columns": ["Compound", "pIC50"],
 "data": [
  ["CC[C@H](C)[C@@H]1NC(=O)[C@H](CC2CCCC2)N(C)C(=O)C[C@@H](C(=O)N(C)C)N(C)C(=O)[C@H](C2CCCC2)N(C)C(=O)C2(CCC2)NC(=O)[C@@H]2C[C@@H](C(F)(F)F)CN2C(=O)[C@H](CCc2cc(F)c(C(F)(F)F)c(F)c2)NC(=O)CN(C)C(=O)[C@H](Cc2ccc(C(F)(F)F)cc2)N2CC/C=C\\C[C@@H](C2=O)N(C)C(=O)CN(C)C1=O", 8.40],
  ["CCC[C@H]1C(=O)N[C@@H]([C@@H](C)CC)C(=O)N(C)CC(=O)N(C)[C@H]2C/C=C\\CCN(C2=O)[C@@H](Cc2ccc(C)cc2)C(=O)N(C)CC(=O)N[C@@H](CCc2ccc(C(F)(F)F)c(OC)c2)C(=O)N2C[C@H](OCC)C[C@H]2C(=O)NC2(CC(C)(C)C2)C(=O)N(C)[C@@H](CC(F)(F)F)C(=O)N(C)[C@H](C(=O)N(C)C)CC(=O)N1C", 7.20],
  ["CCO[C@@H]1C[C@H]2C(=O)NC3(CC(C)(C)C3)C(=O)N(C)[C@@H](C3CCCC3)C(=O)N(C)[C@H](C(=O)N3CCCCC3)CC(=O)N(C)[C@H]3CCC/C=C/c4ccc(cc4)C[C@@H](C(=O)N(C)CC(=O)N[C@@H](CCc4cc(F)c(C(F)(F)F)c(F)c4)C(=O)N2C1)N1CC/C=C\\C[C@@H](C1=O)N(C)C(=O)CN(C)C(=O)[C@H]([C@@H](C)CC)NC3=O", 8.00],
  ["CC[C@H](C)[C@@H]1NC(=O)[C@H](CC(C)C)N(C)C(=O)C[C@@H](C(=O)N2CCOCC2)N(C)C(=O)[C@H](C2CCCC2)N(C)C(=O)C2(CCCC2)NC(=O)[C@@H]2CCCN2C(=O)[C@H](CCc2ccc(C(F)(F)F)c(Cl)c2)NC(=O)CN(CC)C(=O)[C@H](Cc2ccc(C)cc2)N(C)C(=O)CN(C)C(=O)CN(C)C1=O [PP0025] ([NMeL]I[Sar][Sar][NMePhe(4-Me)][NEtG][hPhe(3-Cl-4-CF3)]P[Ac5c][NMeGly(cPent)][NMeD]-Morpholide; lactam N-11)", 7.56],
  ["CCCN1C(=O)CN(C)C(=O)CN(CC)C(=O)[C@H]([C@@H](C)CC)NC(=O)[C@H](CC(C)C)N(C)C(=O)C[C@@H](C(=O)N(C)C)NC(=O)[C@H](C2CCCC2)N(C)C(=O)C2(CCC2)NC(=O)[C@@H]2CCCN2C(=O)[C@H](CCc2ccc(C(F)(F)F)c(Cl)c2)NC(=O)CN(C)C(=O)[C@@H]1Cc1ccc(C(F)(F)F)cc1 [PP0368] ([NMeL]I[NEtG][Sar][NPrPhe(4-CF3)][Sar][hPhe(3-Cl-4-CF3)]P[Ac4c][NMeGly(cPent)]D-NMe2; lactam N-11)", 6.94]
]}

# input Any idea what its pIC50 is? The compound is "CCC[C@H]1C(=O)N[C@@H]([C@@H](C)CC)C(=O)N(C)CC(=O)N(C)[C@H]2C/C=C\CCN(C2=O)[C@@H](Cc2ccc(C)cc2)C(=O)N(C)CC(=O)N[C@@H](CCc2cc(F)c(C(F)(F)F)c(F)c2)C(=O)N2CC3(CC3)C[C@H]2C(=O)N(C)C2(CCC2)C(=O)N(C)[C@@H](C2CCCC2)C(=O)N(C)[C@H](C(=O)N(C)C)CC(=O)N1C"
# output 8.36

# input Any idea what its pIC50 is? The compound is "CCO[C@@H]1C[C@H]2C(=O)NC3(CC(C)(C)C3)C(=O)N(C)[C@@H](C(CC)CC)C(=O)N(C)[C@H](C(=O)N(C)C)CC(=O)N(C)[C@@H](CC3CCC3)C(=O)N[C@@H]([C@@H](C)CC)C(=O)N(C)CC(=O)N(C)[C@H]3C/C=C\CCN(C3=O)[C@@H](Cc3ccc(C)cc3)C(=O)N(C)CC(=O)N[C@@H](CCc3cc(F)c(C(F)(F)F)c(F)c3)C(=O)N2C1"
# output 7.63

# input Any idea what its pIC50 is? The compound is CCCN1C(=O)CN(C)C(=O)CN(C)C(=O)[C@H]([C@@H](C)CC)NC(=O)[C@H](CC(C)C)N(C)C(=O)C[C@@H](C(=O)N2CCOCC2)N(C)C(=O)[C@H](C2CCCC2)N(C)C(=O)C2(COC2)NC(=O)[C@@H]2CCCN2C(=O)[C@H](CCc2cc(F)c(C(F)(F)F)c(F)c2)NC(=O)CN(C)C(=O)[C@@H]1Cc1ccc(C(F)(F)F)cc1 [PP0765] ([NMeL]I[Sar][Sar][NPrPhe(4-CF3)][Sar][hPhe(3,5-F2-4-CF3)]P[Ac4c(3-oxa)][NMeGly(cPent)][NMeD]-Morpholide; lactam N-11)
# output 6.91

# input Any idea what its pIC50 is? The compound is "CC[C@H](C)[C@@H]1NC(=O)[C@H](CC(C)C)NC(=O)C[C@@H](C(=O)N2CCOCC2)N(C)C(=O)[C@H](C2CCCC2)N(C)C(=O)C2(CCCC2)NC(=O)[C@@H]2CCCN2C(=O)[C@H](CCc2cc(F)c(C(F)(F)F)c(F)c2)NC(=O)CN(C)C(=O)[C@H](Cc2ccc(C(F)(F)F)cc2)N2CCCC[C@@H](C2=O)N(C)C(=O)CN(C)C1=O"
# output 7.68

# input Any idea what its pIC50 is? The compound is "CCO[C@@H]1C[C@H]2C(=O)NC3(CCC3)C(=O)N(C)[C@@H](C3CCCC3)C(=O)N(C)[C@H](C(=O)N(C)C)CC(=O)N(C)[C@@H](Cc3cccc(F)c3)C(=O)N[C@@H]([C@@H](C)CC)C(=O)N(C)CC(=O)N(C)[C@H]3CCCCCN(C3=O)[C@@H](Cc3ccc(C(F)(F)F)cc3)C(=O)N(C)CC(=O)N[C@@H](CCc3cc(F)c(C(F)(F)F)c(F)c3)C(=O)N2C1"
# output 7.57

Data credit: patent EP4603105A1
